target: hemagglutinin (HA) of influenza virus H7N3 A/NIBRG/60 (A/mallard/Netherlands/12/00) (influenza A virus); test: cell-based or functional assay
# average neutralization titer annotations
Value expressed in nM; do not type the unit.

Which average neutralization titer value is on record for MD2310 (bispecific antibody) EVQLVESGGGLVQPGGSLRLSCAATGFTLENKAIGWFRQTPGSEREGVLCISKSGSWTYYTDSMRGRFTISRDNAENTVYLQMDSLKPEDTAVYYCATTTAGGGLCWDGTTFSRLASSWGQGTQVTVSSGGGGSGGGGSEVQLVESGGGLVQAGDSLRLSCAASGPTFGMSAMGWFRQAPGKEREFVAAISGLGNPNYSDDVKGRFTISRENGRNTVYLQMNSLKPEDTAVYYCAQRKVYHVQGGDRPQAYDYWGQGTQVTVSSGGGGSGGGGSEVQLVESGGGLVQAGDSLRISCAASGRTLSIYSMGWFRQAPGKEREFVATIGWNSGRTFYPDSLKGRFTISRDNARNTLYLQMNNLRPEDTAVYYCAAAKGPLRLSSQADYWGQGTQVTVSS ?
30.4

Continuing:
Which average neutralization titer value is on record for MD2311 (bispecific antibody) EVQLVESGGGLVQAGDSLRLSCAASGPTFGMSAMGWFRQAPGKEREFVAAISGLGNPNYSDDVKGRFTISRENGRNTVYLQMNSLKPEDTAVYYCAQRKVYHVQGGDRPQAYDYWGQGTQVTVSSGGGGSGGGGSEVQLVESGGGLVQPGGSLRLSCAATGFTLENKAIGWFRQTPGSEREGVLCISKSGSWTYYTDSMRGRFTISRDNAENTVYLQMDSLKPEDTAVYYCATTTAGGGLCWDGTTFSRLASSWGQGTQVTVSSGGGGSGGGGSEVQLVESGGGLVQAGDSLRISCAASGRTLSIYSMGWFRQAPGKEREFVATIGWNSGRTFYPDSLKGRFTISRDNARNTLYLQMNNLRPEDTAVYYCAAAKGPLRLSSQADYWGQGTQVTVSS ?
15.3
